Consider the following molecules; for each one, report its RP-LC retention time.
Assay: gradient 5% acetonitrile 3 min, to 50% in 2 min, to 85% in 15 min, held 3 min, 100 µL/min
Conditions: column: Zorbax Extend-C18 2.1 x 50 mm; eluents: water / acetonitrile, 0.1% formic acid
Answers are plain numbers, in s.

Sure, the documented RP-LC retention time for Cc1ccccc1NC(=O)N(C)CC1CCOCC1 is 726

Sure, the documented RP-LC retention time for Cc1ccc(-c2noc(Cn3ncn4nc(-c5ccc(Br)cc5)cc4c3=O)n2)cc1 is 1280

Sure, the documented RP-LC retention time for CCc1nc(-c2csc(S(=O)(=O)N3CCC(C(=O)N4CCCCC4)CC3)c2)no1 is 903

Sure, the documented RP-LC retention time for CCOc1ccccc1NC(=O)Cn1ccc2ccc(-c3nnc(CC)o3)cc21 is 928

Sure, the documented RP-LC retention time for CCn1c(=O)c2ccccc2n(Cc2nc(-c3ccccc3Cl)no2)c1=O is 1000

Sure, the documented RP-LC retention time for C=CCN(Cc1nc(-c2ccc(C)cc2)no1)C(=O)Nc1cccc(Cl)c1 is 1150

For every item in the list below, what is its measured RP-LC retention time?
1. O=C(CN1c2ccc(F)cc2-c2ccccc2S1(=O)=O)NCCc1ccccc1
2. Nc1nc(N)c2ncn(-c3ccccc3)c2n1
3. CCCCNc1onc(-c2ccc(F)cc2)c1C(=O)OC

[960, 584, 1130]

For every item in the list below, what is its measured RP-LC retention time?
1. COc1ccc(OC)c(NC(=O)N2CCN(c3cc(C)nc(N4CCCC4)n3)CC2)c1
2. CCn1c(C(=O)Nc2cccc(C)n2)cc2c(=O)oc3ccccc3c21
3. CC(C)(C)c1ccc(-c2noc(Cn3c(=O)n(CCc4ccccc4)c(=O)c4sccc43)n2)cc1
4. COCCCNC(=O)C1CCCN(c2cc(=O)n(C)c(=O)n2C)C1 (stereo unspecified)
5. CCCSc1ncnc2[nH]ncc12
6. O=C(c1cnccn1)N1CCCCC1c1nc(-c2ccncc2)no1 (stereo unspecified)
7. O=C(CN1C(=O)CCC1=O)Nc1nnc(-c2ccc(Cl)s2)o1

1. 676
2. 891
3. 1360
4. 585
5. 837
6. 661
7. 642

For every item in the list below, what is its measured RP-LC retention time?
1. CCCCc1ccc(NC(=O)CSc2ccc(-c3ccncc3)nn2)cc1
2. Cc1cc(N2CCCCC2)nc(N2CCN(S(=O)(=O)c3ccc(-c4ccccc4)cc3)CC2)n1
3. O=C(Nc1ccc2c(c1)OCO2)C1CCCN(c2ncc(-c3ccccc3)cn2)C1 (stereo unspecified)

[718, 935, 1040]

For every item in the list below, what is its measured RP-LC retention time?
1. COc1cccc(CN2CCc3nc(N4CCCC4)ncc3C2)c1
2. COc1ccccc1CNS(=O)(=O)c1ccc2c(c1)C(=O)N(C)c1ncccc1O2

[600, 907]

###

Experiment: gradient 5% acetonitrile 3 min, to 50% in 2 min, to 85% in 15 min, held 3 min, 100 µL/min
Conditions: column: Zorbax Extend-C18 2.1 x 50 mm; eluents: water / acetonitrile, 0.1% formic acid
Group membership follows RP-LC retention time per the scheme lower bin: < 700 s; middle bin: ≥ 700 s and < 900 s; upper bin: ≥ 900 s

Exam item: assign Cc1cc(=O)n(CC(=O)Nc2ccc(F)cc2)c(N)n1 to the correct category.
lower bin

Exam item: assign Cc1ccc(CNC(=O)CN2C(=O)CCCc3cc(S(=O)(=O)N4CCCC4)ccc32)cc1 to the correct category.
middle bin

Exam item: assign COc1ccc(C(CC(=O)NCCC(C)C)N2Cc3ccccc3C2=O)cc1OC (centres undefined) to the correct category.
middle bin

Exam item: assign Cc1ccc2[nH]cc(CCN3CC(C(=O)Nc4nnc(CC(C)(C)C)s4)CC3=O)c2c1 (centres undefined) to the correct category.
middle bin

Exam item: assign COC1C(=O)N(C2CCN(C(=O)c3cnccn3)CC2)C12CCOCC2 (centres undefined) to the correct category.
lower bin

Exam item: assign COC(=O)N1CCc2ccc(F)cc2C1C(=O)Nc1ncc(C)s1 (centres undefined) to the correct category.
middle bin

Exam item: assign CCS(=O)(=O)N1[C@H]2CC[C@@H]1c1cnc(-c3ccc(F)cc3)nc1C2 to the correct category.
upper bin

Exam item: assign O=C(Nc1ccc(Br)cc1F)N1CCc2nc(-c3ccc(F)cc3)ncc2C1 to the correct category.
upper bin

Exam item: assign COCC(C)NC(=O)CN1c2ccc(F)cc2-c2ccccc2S1(=O)=O (centres undefined) to the correct category.
middle bin

###

Test: gradient 5% acetonitrile 3 min, to 50% in 2 min, to 85% in 15 min, held 3 min, 100 µL/min
Conditions: column: Zorbax Extend-C18 2.1 x 50 mm; eluents: water / acetonitrile, 0.1% formic acid
readout_label: RP-LC retention time (s)
One number for each entry, in s.

These recorded examples may help you get a feel for the data.
Sure, the documented RP-LC retention time for O=C(Nc1ccc(F)cc1F)Nc1nccn(-c2ccc(F)cc2)c1=O is 942

Sure, the documented RP-LC retention time for COc1ccccc1NC(=O)c1cnc2c(c1)c(=O)n(C)c(=O)n2-c1ccc(C)cc1 is 944

Sure, the documented RP-LC retention time for O=S(=O)(NCc1nc(-c2ccc(NS(=O)(=O)c3ccccc3)cc2)no1)c1ccccc1 is 877

For every item in the list below, what is its measured RP-LC retention time?
1. CCc1cccc(NC(=O)N2CCN(c3cc(C)nc(N4CCCC4)n3)CC2)c1
2. CO[C@H]1CN(C2CCN(S(=O)(=O)c3cccc4cccnc34)CC2)[C@H]1c1cccnc1

1: 704; 2: 605

###

Experiment: gradient 5% acetonitrile 3 min, to 50% in 2 min, to 85% in 15 min, held 3 min, 100 µL/min
Settings: column: Zorbax Extend-C18 2.1 x 50 mm; eluents: water / acetonitrile, 0.1% formic acid
// assign Fulfilled if RP-LC retention time falls strictly below 800 s, else Not fulfilled (ties count as Not fulfilled)

Example entries begin here.
Is RP-LC retention time of Cc1cccc(Cc2cnc[nH]2)c1C strictly below 800 s?
Fulfilled

Is RP-LC retention time of CCn1c(C(=O)N2CCCC(C(=O)NC(C)C34CC5CC(CC(C5)C3)C4)C2)cc2sccc21 (stereo not given) strictly below 800 s?
Not fulfilled

Is RP-LC retention time of COc1ccc(Cn2nc3c(S(=O)(=O)N4CCCCCC4)cccn3c2=O)cc1F strictly below 800 s?
Not fulfilled

Continuing:
Is RP-LC retention time of Cn1cc(CC(=O)N2CCN(c3ncccn3)CC2)c2ccccc21 strictly below 800 s?
Fulfilled

###

Test: gradient 5% acetonitrile 3 min, to 50% in 2 min, to 85% in 15 min, held 3 min, 100 µL/min
Conditions: column: Zorbax Extend-C18 2.1 x 50 mm; eluents: water / acetonitrile, 0.1% formic acid
Consider the following compounds; for each one, report its RP-LC retention time.
One number for each entry, in s.

Sure, the documented RP-LC retention time for Cc1cc(C)c2c(N3CCSCC3)nc(C(=O)NCC(C)C)nc2n1 is 658

Sure, the documented RP-LC retention time for CC(C)CC(=O)Nc1ccc(N2CCN(CC(=O)N3CCCC3)CC2)cc1C(=O)O is 614

For every item in the list below, what is its measured RP-LC retention time?
1. C=CCNC(=O)N1CCCN(C2=NS(=O)(=O)C(c3ccc(C)c(C)c3)=C2C)CC1
2. FC(F)(F)c1nc2ccccc2n1CC1CCN(Cc2cn3ccccc3n2)CC1

[770, 557]

###

Consider the following molecules; for each one, report its RP-LC retention time.
Experiment: gradient 5% acetonitrile 3 min, to 50% in 2 min, to 85% in 15 min, held 3 min, 100 µL/min
Settings: column: Zorbax Extend-C18 2.1 x 50 mm; eluents: water / acetonitrile, 0.1% formic acid
Output should be the measured figure followed by the unit it is expressed in.

Sure, the documented RP-LC retention time for COc1ccc(NC(=O)C2CC(=O)N(c3ccc4oc(C)nc4c3)C2)cc1 (stereo not given) is 706 s

Sure, the documented RP-LC retention time for CCN(CC)S(=O)(=O)c1cccc(-c2nnc(-c3cccc(C)c3)o2)c1 is 1120 s

For every item in the list below, what is its measured RP-LC retention time?
1. COc1ccc(Cl)cc1NC(=O)C1CCN(S(=O)(=O)c2cc(C(=O)N(C)C)cs2)CC1
2. O=S(=O)(NCC(O)c1ccc(C(F)(F)F)cc1)c1ccc2c(c1)CCCC2 (stereo not given)
3. Cc1cc(C)n(-c2cc(N3CCCC3)ncn2)n1
4. CCOc1cccc(-c2noc(Cn3cnc4c(cnn4-c4cc(Cl)ccc4C)c3=O)n2)c1
5. COc1cc2c(c(OC)c1O)C(=O)CO2

["889 s", "984 s", "764 s", "1230 s", "642 s"]

For every item in the list below, what is its measured RP-LC retention time?
1. CC(=O)c1cccc(NC(=O)Nc2cccc(-c3ccc(N4CCCC4)nn3)c2)c1
2. CN1CCN(c2cccc(Nc3nc4c(-c5ccc(S(C)(=O)=O)cc5)cccn4n3)c2)CC1
3. CCCNS(=O)(=O)c1cc2n(c1)CCCN(CC)C2=O
4. Cc1cccc(Sc2nccnc2N2CCC(C(=O)NCc3ccccc3)CC2)c1
5. COc1cccc(Cn2ccn3nc(-c4ccc5c(c4)OCO5)cc3c2=O)c1

["654 s", "675 s", "642 s", "1060 s", "970 s"]

For every item in the list below, what is its measured RP-LC retention time?
1. O=C(Cc1cccc(F)c1)Nc1cc(-c2ccccn2)no1
2. O=C(Nc1ccccc1)c1cn2c(n1)CCCC2
3. COc1ccccc1NC(=O)C(=O)c1cn(CC(=O)N2CCCC2)c2ccccc12
4. O=C(Nc1nnc(-c2ccc(Br)o2)o1)c1ccc(F)cc1F

1: 800 s; 2: 577 s; 3: 1130 s; 4: 740 s
